target: UniProt:P22607; assay: In vitro activity inhibition test for kinase FGFR3
PROPERTY MEASURED: IC50

Look over these answered cases.
MOLECULE	IC50
C=CC(=O)N1CC[C@H](n2nc(-c3cc4cc(C)cc(OC)c4s3)c3c(N)n[nH]c(=O)c32)C1 [Compound 36]	< 10 nM
C=CC(=O)N1CCC[C@H](n2cc(C#Cc3cc(OC)cc(OC)c3)c3c(N)n[nH]c(=O)c32)C1 [Compound 20]	< 10 nM
C=CC(=O)N1CC[C@H](n2nc(C#Cc3c(F)c(OC)cc(OC)c3F)c3c(N)n[nH]c(=O)c32)C1 [Compound 28]	< 10 nM
C=CC(=O)N1CC[C@H](n2cc(-c3cn(C)c4ccccc34)c3c(N)n[nH]c(=O)c32)C1 [Compound 42]	< 10 nM
CC#CC(=O)N1CCC[C@H](n2nc(C#Cc3cc(OC)cc(OC)c3)c3c(N)n[nH]c(=O)c32)C1 [Compound 25]	< 10 nM
C=CC(=O)N1CC[C@H](n2cc(-c3cc4ccccc4o3)c3c(N)n[nH]c(=O)c32)C1 [Compound 41]	< 10 nM

QUERY: Any idea what IC50 was measured for C=CC(=O)N1CCC(Nc2nc(N)c(C(N)=O)c(C#Cc3cc(OC)cc(OC)c3)n2)CC1 [Compound 10] ?
RESULT: 100 to 500 nM

QUERY: Look up IC50 for this molecule: C=CC(=O)N1CC[C@H](Nc2nccc(C#Cc3cc(OC)cc(OC)c3)n2)C1 [Compound 1]
RESULT: 100 to 500 nM

* * *

target: FGFR4 (Homo sapiens, UniProt P22455); assay: In vitro activity inhibition test for kinase FGFR4
Sequence (P22455 22-802): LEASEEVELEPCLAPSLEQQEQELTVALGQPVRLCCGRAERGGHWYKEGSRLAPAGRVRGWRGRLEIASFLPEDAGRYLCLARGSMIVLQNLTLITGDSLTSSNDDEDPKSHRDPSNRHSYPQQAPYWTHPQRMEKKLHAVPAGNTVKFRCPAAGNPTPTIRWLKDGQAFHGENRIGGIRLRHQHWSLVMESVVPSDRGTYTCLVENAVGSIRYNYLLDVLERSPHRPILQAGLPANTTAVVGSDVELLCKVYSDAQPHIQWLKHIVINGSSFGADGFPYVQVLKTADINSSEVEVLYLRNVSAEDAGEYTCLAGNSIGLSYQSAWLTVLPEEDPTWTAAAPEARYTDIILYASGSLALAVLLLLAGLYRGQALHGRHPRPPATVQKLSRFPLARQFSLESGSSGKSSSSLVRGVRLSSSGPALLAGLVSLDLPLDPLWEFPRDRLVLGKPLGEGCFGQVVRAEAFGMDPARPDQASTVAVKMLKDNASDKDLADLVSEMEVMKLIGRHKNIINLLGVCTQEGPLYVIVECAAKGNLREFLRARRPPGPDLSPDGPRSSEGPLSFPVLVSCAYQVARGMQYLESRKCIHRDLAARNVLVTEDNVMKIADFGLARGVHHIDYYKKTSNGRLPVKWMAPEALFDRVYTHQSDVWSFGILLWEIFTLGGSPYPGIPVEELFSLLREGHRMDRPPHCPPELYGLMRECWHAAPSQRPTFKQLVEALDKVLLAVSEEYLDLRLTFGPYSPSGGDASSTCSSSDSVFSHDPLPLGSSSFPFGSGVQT
This listing pairs compounds with measured IC50.

Recorded results for 4 compounds are shown here.
C=CC(=O)N1CCC[C@H](n2cc(C#Cc3cc(OC)cc(OC)c3)c3c(N)n[nH]c(=O)c32)C1 < 10 nM
C=CC(=O)N1CC[C@H](n2cc(-c3cc4cc(C)cc(OC)c4s3)c3c(N)n[nH]c(=O)c32)C1 < 10 nM
C=CC(=O)N1CC[C@H](n2cc(-c3cc4ccccc4o3)c3c(N)n[nH]c(=O)c32)C1 < 10 nM
C=CC(=O)N1CCC[C@H](n2nc(C#Cc3cc(OC)cc(OC)c3)c3c(N)n[nH]c(=O)c32)C1 < 10 nM

Let us move to another entry and its IC50.
QUERY: What value of IC50 has been reported for the following compound? C=CC(=O)N1CC[C@H](Nc2ncc(C(F)(F)F)c(C#Cc3cc(OC)cc(OC)c3)n2)C1
RESULT: 10 to 100 nM

* * *

molecular target: FGFR4 (Homo sapiens, UniProt P22455); assay: In vitro activity inhibition test for kinase FGFR4;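 further: caliper mobility shift assay of FGFR4 kinase activity, compounds tested as 10-point 4-fold dilution series with 0.5% DMSO final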
PROPERTY MEASURED: IC50

The examples below pair each entry with its known result.
C=CC(=O)N[C@H]1CCN(c2nc(N)c(C(N)=O)c(C#Cc3cc(OC)cc(OC)c3)n2)C1 < 10 nM
C=CC(=O)N1CC[C@H](n2nc(C#Cc3c(Cl)c(OC)cc(OC)c3Cl)c3c(N)n[nH]c(=O)c32)C1 < 10 nM

QUERY: May I ask what IC50 has been recorded for C=CC(=O)N1CC[C@H](n2nc(C#Cc3c(F)c(OC)cc(OC)c3F)c3c(N)n[nH]c(=O)c32)C1 ?
RESULT: < 10 nM

QUERY: Would you mind telling me what IC50 value was observed for C=CC(=O)N1CCC2(CC1)CC(Nc1nc(N)c(C(N)=O)c(C#Cc3cc(OC)cc(OC)c3)n1)C2 ?
RESULT: 100 to 500 nM

QUERY: Using the record for CC#CC(=O)N1CC[C@H](n2cc(-c3ccc4ccccc4c3)c3c(N)n[nH]c(=O)c32)C1 , report its IC50.
RESULT: < 10 nM

QUERY: Sample CC#CC(=O)N1CC[C@H](n2nc(C#Cc3cc(OC)cc(OC)c3)c3c(N)n[nH]c(=O)c32)C1 — what was its IC50?
RESULT: < 10 nM

* * *

The entries below are paired with their reported IC50.
molecular target: FGFR4 (Homo sapiens); experiment: In vitro activity inhibition test for kinase FGFR4

MOLECULE	OBSERVED
C=CC(=O)N1CCC[C@H](Nc2nc(N)c(C(N)=O)c(C#Cc3cc(OC)cc(OC)c3)n2)C1 [Compound 11]	10 to 100 nM
CC#CC(=O)N1CCC[C@H](n2nc(C#Cc3cc(OC)cc(OC)c3)c3c(N)n[nH]c(=O)c32)C1 [Compound 25]	< 10 nM
C=CC(=O)N1CC[C@H](n2cc(C#Cc3cc(OC)cc(OC)c3)c3c(N)n[nH]c(=O)c32)C1 [Compound 22]	< 10 nM

QUERY: Please report the recorded IC50 for C=CC(=O)N1CC2(CC(Nc3nc(N)c(C(N)=O)c(C#Cc4cc(OC)cc(OC)c4)n3)C2)C1 [Compound 7] .
RESULT: 10 to 100 nM

QUERY: Entry CC#CC(=O)N1CC[C@H](Nc2nc(N)c(C(N)=O)c(C#Cc3cc(OC)cc(OC)c3)n2)C1 [Compound 12] has what IC50?
RESULT: < 10 nM

QUERY: Any idea what its IC50 is? The molecule is C=CC(=O)N1CCC(c2nc(N)c(C(N)=O)c(C#Cc3cc(OC)cc(OC)c3)n2)C1 (stereo not drawn) [Compound 18]
RESULT: < 10 nM

QUERY: Fill in: IC50 of C=CC(=O)N1CC[C@H](n2cc(-c3ccc4ccccc4c3)c3c(N)n[nH]c(=O)c32)C1 [Compound 43] is ___
RESULT: < 10 nM

QUERY: For CC#CC(=O)N1CC[C@H](Nc2ncc(Br)c(C#Cc3cc(OC)cc(OC)c3)n2)C1 [Compound 13] , what is its reported IC50?
RESULT: 100 to 500 nM

QUERY: What value of IC50 has been reported for the following molecule? C=CC(=O)N1CC[C@H](Nc2ncc(F)c(C#Cc3cc(OC)cc(OC)c3)n2)C1 [Compound 3]
RESULT: 10 to 100 nM

QUERY: Requested read-out: IC50. Entry: C=CC(=O)N1CCC2(CC(Nc3nc(N)c(C(N)=O)c(C#Cc4cc(OC)cc(OC)c4)n3)C2)C1 (stereo not drawn) [Compound 8]
RESULT: 100 to 500 nM

QUERY: Any idea what IC50 was measured for C=CC(=O)N1CC[C@H](n2nc(-c3cc4cc(C)cc(OC)c4s3)c3c(N)n[nH]c(=O)c32)C1 [Compound 36] ?
RESULT: < 10 nM

QUERY: Entry C=CC(=O)N1CC[C@H](Nc2nccc(C#Cc3cc(OC)cc(OC)c3)n2)C1 [Compound 1] has what IC50?
RESULT: 10 to 100 nM

* * *

Listed here are molecules together with their documented IC50.
biological target: FGFR2 (Homo sapiens, UniProt P21802); assay: In vitro activity inhibition test for kinase FGFR2; format: biochemical; conditions: kinase assay, 25° C.; read-out: Inhibition of separase IC50 (nM) FGFR2
Sequence (P21802 22-821): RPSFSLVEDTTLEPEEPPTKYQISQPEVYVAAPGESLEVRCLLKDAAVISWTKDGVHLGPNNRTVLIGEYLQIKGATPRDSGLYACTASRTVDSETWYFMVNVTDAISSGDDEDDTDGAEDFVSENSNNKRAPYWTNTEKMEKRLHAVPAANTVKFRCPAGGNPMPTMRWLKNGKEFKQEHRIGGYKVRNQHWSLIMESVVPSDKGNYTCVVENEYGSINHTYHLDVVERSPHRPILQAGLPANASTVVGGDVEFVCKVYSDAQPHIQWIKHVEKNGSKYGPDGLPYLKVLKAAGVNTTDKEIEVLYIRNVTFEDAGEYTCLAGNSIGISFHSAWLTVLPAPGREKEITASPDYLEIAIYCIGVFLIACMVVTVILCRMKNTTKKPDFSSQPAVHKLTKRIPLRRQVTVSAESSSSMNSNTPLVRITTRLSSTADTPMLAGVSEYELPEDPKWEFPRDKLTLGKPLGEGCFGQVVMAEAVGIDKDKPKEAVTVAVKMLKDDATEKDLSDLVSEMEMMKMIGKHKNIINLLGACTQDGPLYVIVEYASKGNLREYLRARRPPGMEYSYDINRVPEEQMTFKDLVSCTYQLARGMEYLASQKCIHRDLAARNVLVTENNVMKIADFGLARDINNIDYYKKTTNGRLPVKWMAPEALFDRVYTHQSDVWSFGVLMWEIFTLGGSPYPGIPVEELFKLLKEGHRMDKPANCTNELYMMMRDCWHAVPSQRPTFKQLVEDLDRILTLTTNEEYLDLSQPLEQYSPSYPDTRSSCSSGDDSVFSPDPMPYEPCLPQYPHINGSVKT

Consider the following illustrative entries.
C=CC(=O)N1CC[C@H](Nc2ncc(C(F)(F)F)c(C#Cc3cc(OC)cc(OC)c3)n2)C1 100 to 500 nM
CC#CC(=O)N1CC[C@H](n2cc(-c3ccc4ccccc4c3)c3c(N)n[nH]c(=O)c32)C1 < 10 nM
C=CC(=O)N1CC[C@H](Nc2nccc(C#Cc3cc(OC)cc(OC)c3)n2)C1 10 to 100 nM
CC#CC(=O)N1CC[C@H](Nc2ncc(Br)c(C#Cc3cc(OC)cc(OC)c3)n2)C1 10 to 100 nM
C=CC(=O)N1CC[C@H](Nc2ncc(Br)c(C#Cc3cc(OC)cc(OC)c3)n2)C1 10 to 100 nM
CC#CC(=O)N1CC[C@H](n2nc(C#Cc3cc(OC)cc(OC)c3)c3c(N)n[nH]c(=O)c32)C1 < 10 nM

QUERY: Entry CC#CC(=O)N1CC[C@H](Nc2ncc(C(F)(F)F)c(C#Cc3cc(OC)cc(OC)c3)n2)C1 has what IC50?
RESULT: 10 to 100 nM

QUERY: Return reported IC50; argument: C=CC(=O)N1CCC(Nc2nc(N)c(C(N)=O)c(C#Cc3cc(OC)cc(OC)c3)n2)CC1
RESULT: 10 to 100 nM

* * *

molecular target: FGFR3 (Homo sapiens, UniProt P22607); assay: In vitro activity inhibition test for kinase FGFR3;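 further: FGFR3 kinase activity read by Caliper mobility shift assay, compounds run as 10-point 4-fold dilution series, final DMSO 0.5%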
Sequence (P22607 23-806): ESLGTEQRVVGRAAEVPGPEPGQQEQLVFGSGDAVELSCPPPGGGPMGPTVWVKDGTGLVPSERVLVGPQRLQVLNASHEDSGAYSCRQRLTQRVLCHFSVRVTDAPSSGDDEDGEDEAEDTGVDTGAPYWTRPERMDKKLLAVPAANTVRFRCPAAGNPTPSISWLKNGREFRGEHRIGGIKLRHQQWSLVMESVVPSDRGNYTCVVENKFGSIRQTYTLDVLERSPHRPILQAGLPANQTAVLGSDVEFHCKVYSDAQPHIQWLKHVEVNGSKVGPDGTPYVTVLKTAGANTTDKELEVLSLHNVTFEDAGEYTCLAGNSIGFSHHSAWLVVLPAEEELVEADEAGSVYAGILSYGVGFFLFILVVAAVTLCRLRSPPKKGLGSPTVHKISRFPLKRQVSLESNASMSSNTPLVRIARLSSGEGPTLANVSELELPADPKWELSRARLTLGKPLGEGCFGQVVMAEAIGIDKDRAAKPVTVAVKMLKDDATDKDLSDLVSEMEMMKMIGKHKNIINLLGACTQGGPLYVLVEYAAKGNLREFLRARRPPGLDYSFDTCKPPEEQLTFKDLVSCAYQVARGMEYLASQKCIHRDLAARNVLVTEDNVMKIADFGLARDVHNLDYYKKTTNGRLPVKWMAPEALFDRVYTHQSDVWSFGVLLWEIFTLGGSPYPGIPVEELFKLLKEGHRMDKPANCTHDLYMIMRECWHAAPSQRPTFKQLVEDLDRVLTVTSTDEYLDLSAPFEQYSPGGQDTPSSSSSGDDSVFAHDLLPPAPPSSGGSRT
PROPERTY MEASURED: IC50

Worked set:
CC#CC(=O)N1CC[C@H](n2nc(C#Cc3cc(OC)cc(OC)c3)c3c(N)n[nH]c(=O)c32)C1 < 10 nM
C=CC(=O)N1CC[C@H](Nc2ncc(Br)c(C#Cc3cc(OC)cc(OC)c3)n2)C1 100 to 500 nM
C=CC(=O)N1CC[C@H](n2cc(-c3ccc4ccccc4c3)c3c(N)n[nH]c(=O)c32)C1 < 10 nM

QUERY: Which IC50 value belongs to C=CC(=O)N1CC[C@H](Nc2ncc(F)c(C#Cc3cc(OC)cc(OC)c3)n2)C1 ?
RESULT: 10 to 100 nM

QUERY: Consider the compound shown here: CC#CC(=O)N1CC[C@H](Nc2nc(N)c(C(N)=O)c(C#Cc3cc(OC)cc(OC)c3)n2)C1 What is its recorded IC50?
RESULT: < 10 nM

QUERY: // query IC50 value for entry C=CC(=O)N1CC[C@H](Nc2ncc(C(F)(F)F)c(C#Cc3cc(OC)cc(OC)c3)n2)C1
RESULT: 10 to 100 nM

QUERY: Given C=CC(=O)N1CC[C@H](n2cc(-c3cc4ccccc4n3C)c3c(N)n[nH]c(=O)c32)C1 , state its recorded IC50.
RESULT: < 10 nM

QUERY: Please give the measured IC50 for this compound: C=CC(=O)N[C@H]1CCN(c2nc(N)c(C(N)=O)c(C#Cc3cc(OC)cc(OC)c3)n2)C1
RESULT: < 10 nM

Reference source: patent US20240109896A1
